Origin of measurements: paper PMC8427794

TEST_METHOD_NOTES: Brain and plasma kinetics in rat after a single dose
Assay type: in vivo, male Sprague Dawley rat
MEASUREMENT_SETUP: male, Sprague Dawley, brain, sc, 10 mg/kg
MEASUREMENT_NAME: concentration at 2 h (ng/g)
Write the value in ng/g as a bare number.

*Q* Given CCCCn1ccn2c(-c3ccc(OCC4CC4)c(Cl)c3)c(C)nc2c1=O [Compound 3e] , state its recorded concentration at 2 h.
*A* 2860

----------
EXPERIMENTAL_TARGET: mGlu5 (Homo sapiens, UniProt P41594)
Sequence (P41594 21-1212): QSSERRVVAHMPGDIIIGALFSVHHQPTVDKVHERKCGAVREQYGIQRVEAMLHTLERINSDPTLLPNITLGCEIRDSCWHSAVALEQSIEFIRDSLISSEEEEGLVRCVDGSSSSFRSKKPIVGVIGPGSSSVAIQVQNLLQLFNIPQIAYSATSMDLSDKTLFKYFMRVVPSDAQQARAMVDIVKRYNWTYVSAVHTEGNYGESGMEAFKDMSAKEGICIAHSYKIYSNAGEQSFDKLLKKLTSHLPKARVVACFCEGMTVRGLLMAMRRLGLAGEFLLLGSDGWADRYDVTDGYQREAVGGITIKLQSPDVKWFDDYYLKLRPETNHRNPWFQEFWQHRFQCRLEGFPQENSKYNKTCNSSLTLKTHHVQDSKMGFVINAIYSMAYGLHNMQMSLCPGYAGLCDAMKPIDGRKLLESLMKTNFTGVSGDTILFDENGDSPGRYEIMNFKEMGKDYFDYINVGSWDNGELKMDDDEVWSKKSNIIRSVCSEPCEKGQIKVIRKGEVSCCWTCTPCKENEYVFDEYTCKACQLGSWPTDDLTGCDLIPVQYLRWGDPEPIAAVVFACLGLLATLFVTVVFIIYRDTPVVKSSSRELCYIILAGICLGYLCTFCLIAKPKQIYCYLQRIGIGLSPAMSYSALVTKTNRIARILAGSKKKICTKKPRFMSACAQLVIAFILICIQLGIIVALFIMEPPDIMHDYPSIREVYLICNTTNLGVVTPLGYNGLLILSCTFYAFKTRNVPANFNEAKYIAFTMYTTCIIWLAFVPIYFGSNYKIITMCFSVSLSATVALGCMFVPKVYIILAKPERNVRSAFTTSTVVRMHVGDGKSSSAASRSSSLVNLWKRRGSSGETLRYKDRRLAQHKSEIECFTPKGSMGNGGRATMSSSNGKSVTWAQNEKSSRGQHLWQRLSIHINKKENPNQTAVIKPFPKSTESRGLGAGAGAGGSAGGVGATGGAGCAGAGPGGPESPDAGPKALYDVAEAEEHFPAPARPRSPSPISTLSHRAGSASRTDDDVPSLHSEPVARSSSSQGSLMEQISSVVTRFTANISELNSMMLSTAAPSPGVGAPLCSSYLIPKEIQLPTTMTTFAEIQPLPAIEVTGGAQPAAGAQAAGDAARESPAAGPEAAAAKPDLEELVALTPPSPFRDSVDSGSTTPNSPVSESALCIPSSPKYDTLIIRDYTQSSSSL
TEST_METHOD_NOTES: Selectivity panel, mGlu5 Ca2+ assay
Assay type: cell-based
MEASUREMENT_SETUP: read-out: mGlu5 agonism EC50; Ca2+ read-out
MEASUREMENT_NAME: EC50

*Q* Given `CCCCn1ccn2c(-c3ccc(OCC4CC4)c(Cl)c3)c(C)nc2c1=O` , state its recorded EC50.
*A* > 30 µM
